- assay-protocol: chemical genetic growth profiling, strain panel (AID 1159580);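 also: tested at 20 µM; growth read once vehicle control cultures reached saturation at 30 °C; 1 = growth at the plate median or of vehicle wells; lower values mean less growth of the strain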
- recorded-conditions: S. cerevisiae deletion strains, growth OD, locus YBR023C, strain chs3, hits give low values
The campaign covered roughly 5,500 compounds. About 2,000 (36%) were called active. Roughly 18% stayed inconclusive and do not appear here. The list shows a part of the results.
Each record here notes measured normalized growth.
measured-quantity: normalized growth

[[record]]
compound = "C[C@@H]1CCC2[C@](C)(CO)[C@@H](O)CC[C@]2(C)[C@@]12CC[C@@](CO)(CCO)O2 (some centres undefined)"
readout_number = 0.983

[[record]]
compound = "C/C=C/CC(C)C(O)C1C(=O)NC(CC)C(=O)N(C)CC(=O)N(C)C(CC(C)C)C(=O)NC(C(C)C)C(=O)N(C)C(CC(C)C)C(=O)NC(C)C(=O)NC(C)C(=O)N(C)C(CC(C)C)C(=O)N(C)C(CC(C)C)C(=O)N(C)C(C(C)C)C(=O)N1C (centres undefined)"
readout_number = 1.01

[[record]]
compound = "CC[C@@]1(O)C(=O)OCc2c1cc1n(c2=O)Cc2cc3ccccc3nc2-1"
readout_number = 0.803

[[record]]
compound = "CC1Cc2ccccc2N1NC(=O)c1ccc(Cl)c(S(N)(=O)=O)c1 (centres undefined)"
readout_number = 1

[[record]]
compound = "CC(C)(C)NCC(O)COc1cccc2c1CCCC2=O (centres undefined)"
readout_number = 0.983

[[record]]
compound = "O=C1CC2(CCCC2)CC(=O)N1CCCCN1CCN(c2ncccn2)CC1"
readout_number = 0.996

[[record]]
compound = "O=c1c(O)cc([C@H]2Oc3cc(O)cc(O)c3C[C@H]2O)cc2c([C@H]3Oc4cc(O)cc(O)c4C[C@H]3O)cc(O)c(O)c12"
readout_number = 1.02

[[record]]
compound = "CN(C)CC[C@H](c1ccc(Cl)cc1)c1ccccn1"
readout_number = 0.996

[[record]]
compound = "COC(=O)[C@H]1[C@H]2C[C@H]3c4[nH]c5cc(OC)ccc5c4CCN3C[C@H]2C[C@@H](OC(=O)c2cc(OC)c(OC)c(OC)c2)[C@@H]1OC"
readout_number = 1.01

[[record]]
compound = "CC[C@@]1(O)C(=O)OCc2c1cc1n(c2=O)Cc2cc3cc(O)ccc3nc2-1"
readout_number = 1.02

[[record]]
compound = "NC[C@H]1O[C@H](OC2[C@@H](N)C[C@@H](N)[C@H](O[C@H]3O[C@H](CO)[C@@H](O)[C@H](N)[C@H]3O)[C@H]2O)[C@H](O)[C@@H](O)[C@@H]1O (some centres undefined)"
readout_number = 0.983

[[record]]
compound = "Cc1ccccc1N1C(=O)c2cc(S(N)(=O)=O)c(Cl)cc2NC1C (centres undefined)"
readout_number = 0.989

[[record]]
compound = "O=c1c(-c2ccc(O)cc2)coc2c(C3O[C@H](CO)[C@@H](O)[C@H](O)[C@H]3O)c(O)ccc12 (some centres undefined)"
readout_number = 0.991

[[record]]
compound = "C[C@H]1O[C@H](O[C@H]2[C@H](O)[C@@H](O)[C@@H](O[C@H]3[C@H](O)[C@@H](O)C(O)O[C@@H]3CO)O[C@@H]2CO)[C@H](O)[C@@H](O)[C@@H]1N[C@H]1C=C(CO)[C@@H](O)[C@H](O)[C@H]1O (some centres undefined)"
readout_number = 1.01

